TEST TARGET: T1, MGLVKSK(biotin) peptide (XGLVKSK(biotin), X = Met)
T1 construct: also called Nt-Met peptide
T1 peptide: MGLVKSK(Biotin)
PROTOCOL DESCRIPTION: BLI, biotinylated peptide on streptavidin biosensor, 10 µmol/L protein
No end group written: not given here. *: point of attachment. Biotin = O=C1N[C@H]2[C@H](CS[C@H]2CCCCC(=O)*)N1

{"columns": ["BINDER", "binding result"],
 "data": [
  ["GID4 A252V-S253T double mutant variant (residues 116-300), purified with N-terminal His-tag (designed binder, also called A252V-S253T mutant; not shown: N-terminal six-histidine tag and TEV protease recognition site from the pET21(+) construct) GVATSLLYSGSKFRGHQKSKGNSYDVEVVLQHVDTGNSYLCGYLKIKGLTEEYPTLTTFFEGEIISKKHPFLTRKWDADEDVDRKHWGKFLAFYQYAKSFNSDDFDYEELKNGDYVFMRWKEQFLVPDHTIKDISGVTFAGFYYICFQKSAASIEGYYYHRSSEWYQSLNLTHVPEHSAPIYEFR", "binds"],
  ["GID4 S253T variant (residues 116-300), purified with N-terminal His-tag (designed binder, not shown: N-terminal six-histidine tag and TEV protease recognition site from the pET21(+) construct) GVATSLLYSGSKFRGHQKSKGNSYDVEVVLQHVDTGNSYLCGYLKIKGLTEEYPTLTTFFEGEIISKKHPFLTRKWDADEDVDRKHWGKFLAFYQYAKSFNSDDFDYEELKNGDYVFMRWKEQFLVPDHTIKDISGATFAGFYYICFQKSAASIEGYYYHRSSEWYQSLNLTHVPEHSAPIYEFR", "binds"],
  ["GID4 A252V-S253T-S283F triple mutant variant (residues 116-300), purified with N-terminal His-tag (designed binder, not shown: N-terminal six-histidine tag and TEV protease recognition site from the pET21(+) construct) GVATSLLYSGSKFRGHQKSKGNSYDVEVVLQHVDTGNSYLCGYLKIKGLTEEYPTLTTFFEGEIISKKHPFLTRKWDADEDVDRKHWGKFLAFYQYAKSFNSDDFDYEELKNGDYVFMRWKEQFLVPDHTIKDISGVTFAGFYYICFQKSAASIEGYYYHRSSEWYQFLNLTHVPEHSAPIYEFR", "binds"]
]}
